tested on: Acinetobacter baumannii; test: Antibacterial activity against Acinetobacter baumannii incubated for 20 to 24 hrs by broth microdilution method; type: functional; settings: time 20-24 hrs
Starred links: 1 amine or outer side, 2 acyl side, 3 side chain; linkers in the order of their positions; H or OH if unused. Non-standard residues stand in square brackets, D forms with d. Residues, ends and D or L forms follow the SMILES beside them. ξ: configuration not given here. X3 = CCCCCCCCCCCCCCCCCCN([C@@H](Cc1c[nH]cn1)C(=O)[*:2])[*:1]; X5 = CCCCCCCCCCCCCCCCCCN([C@@H](CCCNC(=N)N)C(=O)[*:2])[*:1]; X1 = CCCCCCCCCCCCCCCCN([C@@H](CCCCN)C(=O)[*:2])[*:1]; X2 = CCCCCCCCCCCCCCCCN([C@@H](C)C(=O)[*:2])[*:1]; ξDap = NCC(N)C(=O)O
# if measured MIC < 30 µg/mL: class 1  # else: class 0

A selection of reference data follows.
CCCCCCCCCCCCCCCCN[C@@H](CCCCN)C(=O)N[C@@H](Cc1c[nH]cn1)C(=O)N[C@@H](CCCCN)C(=O)N[C@@H](Cc1c[nH]cn1)C(=O)N[C@@H](CCCCN)C(=O)O (H-[X1]HKHK-OH)
class 0
CCCCCCCCCCCCCCCCCCN[C@@H](Cc1c[nH]cn1)C(=O)N[C@@H](Cc1c[nH]cn1)C(=O)NC(CN)C(=O)NC(CN)C(=O)NC(CN)C(=O)O (stereo partly drawn) (H-[X3]H[ξDap][ξDap][ξDap]-OH)
class 0
CCCCCCCCCCCCCCCCCCN[C@@H](CCCNC(=N)N)C(=O)N[C@@H](CCCNC(=N)N)C(=O)NC(CN)C(=O)NC(CN)C(=O)NC(CN)C(=O)O (stereo partly drawn) (H-[X5]R[ξDap][ξDap][ξDap]-OH)
class 0
CNC(C)[C@@H]1CC[C@@H](N)[C@@H](O[C@H]2[C@H](O)[C@@H](O[C@H]3OC[C@](C)(O)[C@H](NC)[C@H]3O)[C@H](N)C[C@@H]2N)O1 (stereo partly drawn)
class 1
CCCCCCCCCCCCCCCCCCN[C@@H](C)C(=O)N[C@@H](C)C(=O)NC(CN)C(=O)NC(CN)C(=O)NC(CN)C(=O)O (stereo partly drawn)
class 0

Prompt: Consider the compound CCCCCCCCCCCCCCCCN[C@@H](CCCCN)C(=O)N[C@@H](CCCNC(=N)N)C(=O)N[C@@H](CCCCN)C(=O)N[C@@H](CCCNC(=N)N)C(=O)O . Is its MIC strictly less than 30 µg/mL?
Response: class 1

Prompt: Consider the compound CCCCCCCCCCCCCCCCN[C@@H](C)C(=O)N[C@@H](C)C(=O)N[C@@H](C)C(=O)N[C@@H](CCCCN)C(=O)N[C@@H](CCCNC(=N)N)C(=O)N[C@@H](CCCCN)C(=O)N[C@@H](CCCNC(=N)N)C(=O)O (H-[X2]AAKRKR-OH) . Is its MIC strictly less than 30 µg/mL?
Response: class 1

Prompt: Consider the compound CO[C@H]1/C=C/O[C@@]2(C)Oc3c(C)c(O)c4c(O)c(c(/C=N/N5CCN(C)CC5)c(O)c4c3C2=O)NC(=O)/C(C)=C\C=C\[C@H](C)[C@H](O)[C@@H](C)[C@@H](O)[C@@H](C)[C@H](OC(C)=O)[C@@H]1C . Is its MIC strictly less than 30 µg/mL?
Response: class 1
